target: 5-hydroxytryptamine receptor 1A (Rattus norvegicus, UniProt P19327)
Sequence (P19327 whole entry): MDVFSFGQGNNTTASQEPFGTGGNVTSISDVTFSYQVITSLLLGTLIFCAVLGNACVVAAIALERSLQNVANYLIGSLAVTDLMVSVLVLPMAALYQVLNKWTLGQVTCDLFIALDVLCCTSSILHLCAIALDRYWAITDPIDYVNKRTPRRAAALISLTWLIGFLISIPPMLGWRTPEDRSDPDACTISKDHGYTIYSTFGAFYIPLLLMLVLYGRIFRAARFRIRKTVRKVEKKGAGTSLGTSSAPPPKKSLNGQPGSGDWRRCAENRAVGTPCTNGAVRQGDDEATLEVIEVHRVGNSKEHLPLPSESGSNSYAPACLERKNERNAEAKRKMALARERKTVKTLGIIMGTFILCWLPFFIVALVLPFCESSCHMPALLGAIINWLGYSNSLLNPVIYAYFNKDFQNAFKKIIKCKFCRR
assay endpoint: Ki (nM)

(I) COc1ccccc1N1CCN(CCN2C(=O)c3cc(I)ccc3C2c2ccccc2)CC1 (configuration not stated)
(II) COc1ccccc1N1CCN(CCN2C(=O)CCC2c2ccc(I)cc2)CC1 (configuration not stated)
Pick one: I or II . Which has the bigger Ki number? # respond with the chosen item's label
II
(II: 2.54 nM, I: 0.069 nM)
